Target desc: VIM-1 (Pseudomonas aeruginosa (strain ATCC 15692 / DSM 22644 / CIP 104116 / JCM 14847 / LMG 12228 / 1C / PRS 101 / PAO1), UniProt A0A0F7KYQ8)
Run description: biochemical
Test parameters: CCF2-FA substrate, 2 hours at 25° C
pIC50: −log10 of the molar value.
Each record here notes measured pIC50.
Measure name: pIC50

{"Compound": "Nc1cncc(-c2ccc(S(=O)(=O)C3CNC3)c(S(N)(=O)=O)c2-c2nnn[nH]2)c1.O=C(O)C(F)(F)F [Example 112, 2,2,2-trifluoroacetate]", "Measure name": "pIC50", "Assay value": 8.75}
{"Compound": "NCCN1CCC(S(=O)(=O)c2ccc(-c3cccc4nc(N)[nH]c34)c(-c3nn[nH]n3)c2S(N)(=O)=O)CC1 [Example 48]", "Measure name": "pIC50", "Assay value": 9.39}
{"Compound": "NCCS(=O)(=O)c1ccc(-c2cccc3cc(N)ncc23)c(-c2nn[nH]n2)c1S(N)(=O)=O [Example 73]", "Measure name": "pIC50", "Assay value": 9.62}

* * *

Each record here notes measured pIC50.
Target desc: NDM-1 (Klebsiella pneumoniae)
Sequence (C7C422 whole entry, looked up, species assumed): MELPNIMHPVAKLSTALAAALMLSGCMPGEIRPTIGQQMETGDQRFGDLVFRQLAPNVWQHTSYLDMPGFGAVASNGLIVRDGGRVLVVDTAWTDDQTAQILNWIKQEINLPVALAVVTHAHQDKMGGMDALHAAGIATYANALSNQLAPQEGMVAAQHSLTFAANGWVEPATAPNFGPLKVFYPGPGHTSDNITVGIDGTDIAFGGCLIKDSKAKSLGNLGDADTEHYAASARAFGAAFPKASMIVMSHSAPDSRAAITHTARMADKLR
Run description: biochemical
Format: biochemical
Test parameters: CCF2-FA substrate, 2 hours at 25° C; read-out: NDM-1 IC50
pIC50: −log10 of the molar value.

{"Compound": "NCCCS(=O)(=O)c1ccc(-c2cccc3[nH]cnc23)c(-c2nn[nH]n2)c1S(N)(=O)=O", "Target desc": "NDM-1 (Klebsiella pneumoniae)", "pIC50": 9.65}
{"Compound": "Nc1n[nH]c2ccc(-c3ccc(S(=O)(=O)C4CNC4)c(S(N)(=O)=O)c3-c3nnn[nH]3)cc12", "Target desc": "NDM-1 (Klebsiella pneumoniae)", "pIC50": 9.44}
{"Compound": "NC[C@@H](O)CS(=O)(=O)c1ccc(-c2cccc3[nH]c(N)nc23)c(-c2nn[nH]n2)c1S(N)(=O)=O", "Target desc": "NDM-1 (Klebsiella pneumoniae)", "pIC50": 9.92}
{"Compound": "NS(=O)(=O)c1c(S(=O)(=O)C2CNC2)ccc(-c2cccc3ccnn23)c1-c1nnn[nH]1.O=C(O)C(F)(F)F [Example 102, 2,2,2-trifluoroacetate]", "Target desc": "NDM-1 (Klebsiella pneumoniae)", "pIC50": 9.39}
{"Compound": "NS(=O)(=O)c1c(Sc2ccncc2)ccc(-c2ccc(C3CCNCC3)cc2)c1-c1nn[nH]n1", "Target desc": "NDM-1 (Klebsiella pneumoniae)", "pIC50": 8.40}
{"Compound": "NCCS(=O)(=O)c1ccc(-c2ccc3c(c2)CNC3=O)c(-c2nnn[nH]2)c1S(N)(=O)=O.O=C(O)C(F)(F)F [Example 166, 2,2,2-trifluoroacetate]", "Target desc": "NDM-1 (Klebsiella pneumoniae)", "pIC50": 8.55}

* * *

Test system: P. aeruginosa expressing IMP-1, efflux+ (MB9798)
Assay type: cell-based, Pseudomonas aeruginosa
Test parameters: ratio MITC95 PA_9798/MITC95 PA_9799

{"Entry smiles": "NCCS(=O)(=O)c1ccc(-c2cccc3c2nc(N)n3C2CNC2)c(-c2nn[nH]n2)c1S(N)(=O)=O", "Efflux ratio": 4.00}
{"Entry smiles": "Cn1cc(C(=O)C(F)(F)F)c2c(-c3ccc(S(=O)(=O)C4CNC4)c(S(N)(=O)=O)c3-c3nnn[nH]3)cccc21", "Efflux ratio": 4.00}
{"Entry smiles": "Nc1nc2c(-c3ccc(S(=O)(=O)C4CNC4)c(S(N)(=O)=O)c3-c3nn[nH]n3)ccc(C(=O)O)c2s1", "Efflux ratio": 1.50}
{"Entry smiles": "NCCS(=O)(=O)c1ccc(-c2ccc3c(=O)nc[nH]c3c2)c(-c2nnn[nH]2)c1S(N)(=O)=O.O=C(O)C(F)(F)F", "Efflux ratio": 4.00}
{"Entry smiles": "NCCc1nc2c(-c3ccc(S(=O)(=O)CCN)c(S(N)(=O)=O)c3-c3nn[nH]n3)cccc2[nH]1", "Efflux ratio": 2.00}
{"Entry smiles": "Nc1nc2c(-c3ccc(SC4CNC4)c(S(N)(=O)=O)c3-c3nn[nH]n3)cccc2[nH]1", "Efflux ratio": 4.88}
{"Entry smiles": "Nc1nc2c(-c3ccc(S(=O)(=O)C[C@@H](N)CO)c(S(N)(=O)=O)c3-c3nn[nH]n3)cccc2[nH]1", "Efflux ratio": 1.00}
{"Entry smiles": "NCCS(=O)(=O)c1ccc(-c2cccc(C(=O)N[C@H]3CCNC3)c2N)c(-c2nn[nH]n2)c1S(N)(=O)=O", "Efflux ratio": 2.00}
{"Entry smiles": "NCCS(=O)(=O)c1ccc(-c2cnc(N)c(C(=O)N[C@H]3CCNC3)c2)c(-c2nn[nH]n2)c1S(N)(=O)=O", "Efflux ratio": 8.00}
{"Entry smiles": "Cc1cc(-c2ccc(S(=O)(=O)CCN)c(S(N)(=O)=O)c2-c2nnn[nH]2)cnc1N.O=C(O)C(F)(F)F", "Efflux ratio": 3.51}
{"Entry smiles": "Cc1cc(-c2ccc(S(=O)(=O)C3CNC3)c(S(N)(=O)=O)c2-c2nnn[nH]2)cnc1C#N.O=C(O)C(F)(F)F", "Efflux ratio": 127.96}
{"Entry smiles": "Nc1nc2c(-c3ccc(S(=O)(=O)C4CN(CCO)C4)c(S(N)(=O)=O)c3-c3nn[nH]n3)cccc2[nH]1", "Efflux ratio": 2.00}
{"Entry smiles": "NCCS(=O)(=O)c1ccc(-c2cnc(N)c(F)c2)c(-c2nnn[nH]2)c1S(N)(=O)=O.O=C(O)C(F)(F)F", "Efflux ratio": 4.00}
{"Entry smiles": "NCCN1CCC(S(=O)(=O)c2ccc(-c3cccc4nc(N)[nH]c34)c(-c3nn[nH]n3)c2S(N)(=O)=O)CC1", "Efflux ratio": 2.00}
{"Entry smiles": "NC(=O)c1ccc(-c2ccc(S(=O)(=O)C3CNC3)c(S(N)(=O)=O)c2-c2nnn[nH]2)c(N)n1", "Efflux ratio": 2.00}
{"Entry smiles": "NS(=O)(=O)c1c(S(=O)(=O)C2CNC2)ccc(-c2cccc3[nH]c(C(=O)NCC(=O)O)nc23)c1-c1nn[nH]n1", "Efflux ratio": 2.00}

Hello, the source for this data is patent US10227331B2, in case you need it.
